Assignment: determine reported CC50 at 72 h for the given molecules.
Assay: Cytotoxicity of compounds on HEK293T cells (MTT)
Assay type: cell-based
Conditions: human; HEK293T cells, 72 h, MTT; read-out: CC50
Numbers only, in µM.

| MOLECULE | VALUE_UNIT | CC50 at 72 h |
| --- | --- | --- |
| CCOC(=O)c1c(CSc2ccccc2)n(C)c2cc(Br)c(O)c(CN(C)C)c12 [Arbidol, reference compound] | µM | 19.8 |

Challenge: Look up CC50 at 72 h: CC(=O)C1=C(O)C=C2Oc3c(C(C)=O)c(O)c(C)c(O)c3[C@@]2(C)[C@@H]1O [Compound 6]
Response given: 168

====

Tested on: lentiviral particles exhibiting S protein of SARS-CoV-2
Test: microbe, parasite or virus in culture
Assay type: cell-based
ENDPOINT_LABEL: IC50
Please don't drop the unit; write it after the number.

Challenge: Give recorded IC50 with lentiviral particles exhibiting S protein of SARS-CoV-2 for the following compound: "CC(=O)c1c(O)c(C)c(O)c2c1O[C@@H]1CC/C(=C(/C)O)C(=O)[C@]21C"
Response given: 5.28 µM

====

So I've got a bunch of compounds here, and I need their CC50 at 72 h values.
Test: Cytotoxicity of compounds on HEK293T cells (MTT)
Assay type: cell-based
Settings: human
One number for each entry, in µM.

| COMPOUND | ENDPOINT_LABEL | VALUE_UNIT | NUMERIC_RESULT |
| --- | --- | --- | --- |
| CC(=O)C1=C(O)C=C2Oc3c(C(=O)CO)c(O)c(C)c(O)c3[C@@]2(C)C1=O [Compound 10] | CC50 at 72 h | µM | 750 |

Kindly review the next compound as well.
Challenge: Bench note: what CC50 at 72 h did CC(=O)C1=C(O)C[C@H]2Oc3c(C(C)=O)c(O)c(C)c(O)c3[C@@]2(C)C1=O [Compound 11] show?
Response given: 469

====

Give measured CC50 at 4 days for each item. Keep answers brief.
Test: in vitro
Conditions: African green monkey
Answers are plain numbers, in µM.

| MOLECULE | ENDPOINT_LABEL | NUMERIC_RESULT |
| --- | --- | --- |
| CC(=O)c1c(O)c(C)c(O)c2c1OC1=Cc3onc(C)c3C(=O)[C@@]12C | CC50 at 4 days | 252 |
| CCC1=C(O)C[C@H]2Oc3c(C(C)=O)c(O)c(C)c(O)c3[C@@]2(C)C1=O | CC50 at 4 days | 262 |
| CC(=O)c1c(O)c(C)c(O)c2c1OC1=CC(=O)/C(=C(/C)N)C(=O)[C@@]12C | CC50 at 4 days | 528 |
| CC(=O)C1=C(O)C[C@H]2Oc3c(C(C)=O)c(O)c(C)c(O)c3[C@@]2(C)C1=O | CC50 at 4 days | 84.9 |
| CC(=O)c1c(O)c(C)c(O)c2c1O[C@@H]1CC/C(=C(/C)O)C(=O)[C@]21C | CC50 at 4 days | 72.7 |
| CC(=O)C1=C(O)C=C2Oc3c(C(=O)CSC(C)C(=O)O)c(O)c(C)c(O)c3[C@@]2(C)C1=O (mixture of isomers) | CC50 at 4 days | 176 |
| CC(=O)C1=C(O)C=C2Oc3c(C(=O)CSCCC(=O)O)c(O)c(C)c(O)c3[C@@]2(C)C1=O | CC50 at 4 days | 177 |
| CC(=O)c1c(O)c(C)c(O)c2c1O[C@@H]1Cc3onc(C)c3C(=O)[C@]21C | CC50 at 4 days | 296 |

Record CC50 at 4 days for all entries; do not skip any.
1. CC(=O)C1=C(O)C=C2Oc3c4c(c(C)c(O)c3[C@@]2(C)C1=O)OCC4=O
2. CC(=O)C1=C(O)C=C2Oc3c(C(=O)CO)c(O)c(C)c(O)c3[C@@]2(C)C1=O
3. CC(=O)c1c(O)c(C)c(O)c2c1OC1=CC(=O)c3c(C)noc3[C@@]12C

Response given:
[176, 306, 15.5]

====

System: SARS-CoV-2 Delta lineage B.1.617.2, hCoV-19/Russia/PSK-2804/2021
Assay: microbe, parasite or virus in culture
Type: cell-based
Details: Severe acute respiratory syndrome coronavirus 2, Vero C1008, 96 h
Labelling field: enter class 1 if recorded IC50 is less than 10 µM. Enter class 0 if it equals or exceeds that cut-off.

Recorded results for 4 molecules are shown here.
| MOLECULE | LABEL |
| --- | --- |
| CC(=O)c1c(O)c(C)c(O)c2c1OC1=CC(=O)c3c(C)noc3[C@@]12C | class 1 |
| CC(=O)C1=C(O)C=C2Oc3c(C(C)=O)c(O)c(C)c(O)c3[C@@]2(C)C1=O [Compound 1, (R)-(+)-Usnic acid] | class 0 |
| CCC1=C(O)C[C@H]2Oc3c(C(C)=O)c(O)c(C)c(O)c3[C@@]2(C)C1=O | class 0 |
| CC(=O)c1c(O)c(C)c(O)c2c1O[C@@H]1CC/C(=C(/C)O)C(=O)[C@]21C | class 0 |

Challenge: Report whether reported IC50 is lower than 10 µM (strictly) for CCC(CC)COC(=O)[C@H](C)N[P@](=O)(OC[C@H]1O[C@@](C#N)(c2ccc3c(N)ncnn23)[C@H](O)[C@@H]1O)Oc1ccccc1 [Remdesivir, reference compound]
Response given: class 1

Challenge: Also "CC(=O)C1=C(O)C=C2Oc3c4c(c(C)c(O)c3[C@@]2(C)C1=O)OCC4=O" , if possible.
Response given: class 0

Challenge: One more molecule: "CC(=O)C1=C(O)C=C2Oc3c(C(=O)CO)c(O)c(C)c(O)c3[C@@]2(C)C1=O"
Response given: class 1

====

Listed here: molecules with reported IC50 for UniProt P0DTD1.

| MOLECULE | IC50 |
| --- | --- |
| CC(=O)C1=C(O)C=C2Oc3c(C(=O)CO)c(O)c(C)c(O)c3[C@@]2(C)C1=O [Compound 10] | ~200 µM |
| CC(=O)c1c(O)c(C)c(O)c2c1OC1=CC(=O)/C(=C(/C)N)C(=O)[C@@]12C [Compound 7] | ~200 µM |
| CC(=O)C1=C(O)C=C2Oc3c(C(C)=O)c(O)c(C)c(O)c3[C@@]2(C)[C@@H]1O [Compound 6] | 112 µM |

Then this molecule:
Challenge: Give the reported IC50 for CC(=O)C1=C(O)C=C2Oc3c4c(c(C)c(O)c3[C@@]2(C)C1=O)OCC4=O [Compound 8] (system: UniProt P0DTD1).
Response given: ~200 µM

====

System: SARS-CoV-2 Wuhan lineage B, hCoV-19/Australia/VIC01/2020 (EPI_ISL_406844)
Test: microbe, parasite or virus in culture
Type: cell-based
Settings: Severe acute respiratory syndrome coronavirus 2, Vero C1008, 96 h
ENDPOINT_LABEL: IC50 (µM)
One number for each entry, in µM.

Known results for molecules:
| MOLECULE | IC50 (µM) |
| --- | --- |
| CC(=O)C1=C(O)C[C@H]2Oc3c(C(C)=O)c(O)c(C)c(O)c3[C@@]2(C)C1=O | 21 |
| CC(=O)c1c(O)c(C)c(O)c2c1OC1=CC(=O)c3c(C)noc3[C@@]12C | 9.2 |
| CC(=O)C1=C(O)C=C2Oc3c(C(=O)CO)c(O)c(C)c(O)c3[C@@]2(C)C1=O | 25.3 |
| CCC1=C(O)C[C@H]2Oc3c(C(C)=O)c(O)c(C)c(O)c3[C@@]2(C)C1=O | 91 |
| CC(=O)c1c(O)c(C)c(O)c2c1O[C@@H]1CC/C(=C(/C)O)C(=O)[C@]21C | 6.7 |
| CCC(CC)COC(=O)[C@H](C)N[P@](=O)(OC[C@H]1O[C@@](C#N)(c2ccc3c(N)ncnn23)[C@H](O)[C@@H]1O)Oc1ccccc1 [Remdesivir, reference compound] | 3.8 |

Proceeding to the next molecule to report its IC50.
Challenge: May I ask what IC50 has been recorded for "CC(=O)C1=C(O)C=C2Oc3c4c(c(C)c(O)c3[C@@]2(C)C1=O)OCC4=O" ?
Response given: 44.3

====

Assay: Cytotoxicity of compounds on HEK293T cells (MTT)
Type: cell-based
Settings: human
Would you kindly list CC50 at 72 h for each of these molecules?

The following molecules have reported results that may help.
| COMPOUND_STRUCTURE | RESULT |
| --- | --- |
| CC(=O)C1=C(O)C=C2Oc3c(C(=O)CSCCC(=O)O)c(O)c(C)c(O)c3[C@@]2(C)C1=O | > 1000 µM |
| CC(=O)c1c(O)c(C)c(O)c2c1OC1=CC(=O)/C(=C(/C)N)C(=O)[C@@]12C | 850 µM |

Next:
Challenge: Name the recorded CC50 at 72 h for "CCC1=C(O)C[C@H]2Oc3c(C(C)=O)c(O)c(C)c(O)c3[C@@]2(C)C1=O" .
Response given: > 1000 µM
